Values from patent US20240262910A1

target.or.test.system: T1, human CD33, full length, on cells (human, UniProt P20138 18-364)
T1 construct: NIH-3T3 cells stably overexpressing full-length human CD33, or AML lines U937 and Set2 with endogenous CD33; the cell line is named under assay; also called 3T3-huCD33; 3T3-CD33
T1 sequence (P20138 18-364): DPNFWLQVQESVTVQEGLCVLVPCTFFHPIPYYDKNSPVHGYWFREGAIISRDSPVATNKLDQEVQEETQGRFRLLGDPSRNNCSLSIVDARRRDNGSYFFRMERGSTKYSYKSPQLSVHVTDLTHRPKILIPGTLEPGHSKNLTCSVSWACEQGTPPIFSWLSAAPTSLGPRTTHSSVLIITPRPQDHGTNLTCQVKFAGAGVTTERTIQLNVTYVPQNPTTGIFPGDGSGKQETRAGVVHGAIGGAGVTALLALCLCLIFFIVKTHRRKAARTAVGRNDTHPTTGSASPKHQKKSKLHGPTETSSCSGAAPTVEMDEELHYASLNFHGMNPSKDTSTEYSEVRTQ
experiment.description: flow cytometry, purified mAb, U937 cells
pEC50: −log10 of the molar value.
measurement.type: pEC50

{"columns": ["binder", "numeric.result"],
 "data": [
  ["4-B2 (hybridoma antibody) (antibody, V domains shown, AlivaMab mouse hybridoma antibody; also called 4-B2-A) VH: EVHLLESGGGLVQPGGSLRLSCAASGFIFSSNAMSWVRQAPGKGLEWVSAISGYGGNTYYADSVKGRFTISRDNSKNTLYLQMNSLRAEDTAVYYCAKWGTYIVGATGDYWGQGTLVTVSS VL: QSALTQPPSASGSPGQSVTISCTGTSNDVGGYNYVSWYQQHPGKAPKLLIYEVSKRPSGVPDRFSGSQSGNTASLTVSGLQAEDEADYYCSSYAGSNNWVFGGGTKLTVL", 7.39],
  ["1-J19 (hybridoma antibody) (antibody, V domains shown, AlivaMab mouse hybridoma antibody; also called 1-J19-A) VH: QVQLQQSGPGLVKPSQTLSLTCAISGDSVSSNSAAWNWIRQSPSRGLEWLGRTYFRSKWYNVYAVSVKSRITINPDTSKNQFSLQLNSVTPEDTAVYYCASEGGSYYDHWGQGTLVTVSS VL: DIQMTQSPSSVSASVGDRVTITCRASQGISNWLTWYQQKPGKAPKLLIYAASSLQSGVPSRFSGSGSGTDFTLTISSLQPEDFATYYCQQADSFPFTFGPGTKVDIK", 7.99],
  ["2-N3 (antibody, V domains shown, AlivaMab mouse hybridoma antibody; also called 2-N3-A) VH: EVQLVQSGADVKKPGESLKISCKGSGFSFTSHWIAWVRQMPGKGLEWMGIIYPGDSDTRYSPSLQGRVTISADKSISTAYLQWSSLKASDTAMYFCARHETGNGYSYGMDVWGQGTTVTVSS VL: DIVMTQSPLSLPVTPGEPASISCRSSQSLLHSNGYNYLDWYLQKPGQSPQLLFSLGSNRASGVPDRFSGSGSGTDFSLKISRVEAEDVGLYYCMQALQPPLTFGGGTKVEIK", 9.40],
  ["1-P23 (antibody, V domains shown, AlivaMab mouse hybridoma antibody; also called 1-P23-A) VH: QVQLVESGGGVVQPGRSLRLSCAASGFTFNSYGMHWVRQAPGKGLEWVAIISYDGSNKYYADSVKGRFTISRDNSKNTLYLQMNSLRAEDTAVYYCARDNYDSSGYNWYFDLWGRGTLVTVSS VL: SSELTQDPAVSVALGQTVRITCQGDSLRSYYASWYQQKPGQAPVLVIYGKNNRPSGIPDRFSGSSSGNTASLTITGAQAEDEADYYCNSRDSSGNLWVFGGGTKLTVL", 8.97],
  ["4-P3 (antibody, V domains shown, AlivaMab mouse hybridoma antibody; also called 4-P3-A) VH: EVQLLESGGGLVQPGGSLRLSCAASGFTFSTYAMSWVRQAPGKGLEWVSAISGRGGSTYYTDSVKGRFTISRDNSKNTVSLQMNSLRAEDTAVYYCAGRGDYYYYYGMDVWGQGTTVTVSA VL: DIVMTQSPLSSPVTLGQPASISCRSSQSLVYSDGNTYLSWLQQRPGQPPRLLIYKISNRFSGVPDRFSGSGAGTDFTLKISRVEAEDVGVYYCMQSTQFPHTFGQGTKLEIK", 8.60]
]}
